# assayed.system: E. coli ClpP (Escherichia coli)
# Construct: His-tag; made in house; host or cells: E. coli SG1146a
# Sequence (P0A6G7 15-207): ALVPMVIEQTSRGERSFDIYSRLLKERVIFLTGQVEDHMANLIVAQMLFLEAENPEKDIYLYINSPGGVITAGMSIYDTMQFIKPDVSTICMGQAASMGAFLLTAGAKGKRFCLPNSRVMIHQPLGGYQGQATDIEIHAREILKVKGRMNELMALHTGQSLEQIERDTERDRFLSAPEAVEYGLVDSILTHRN
# test.method.notes: Fluorescence-based E. coli ClpP proteolytic activity assay (Suc-LY-AMC), primary screen and dose-response
# Assay type: biochemical
# measurement.parameters: read-out: E. coli ClpP inhibition [%] in the primary screen, primary screen, 200 µM
Readings of inhibition at 200 µM for the listed molecules

molecule: O=c1c(O)c(-c2cc(O)c(O)c(O)c2)oc2cc(O)cc(O)c12
assayed.system: E. coli ClpP (Escherichia coli)
unit.spec: %
inhibition at 200 µM: 76

molecule: CCN(CC)CCNC(=O)c1c(C)[nH]c(/C=C2\C(=O)Nc3ccc(F)cc32)c1C [Sunitinib Malate]
assayed.system: E. coli ClpP (Escherichia coli)
unit.spec: %
inhibition at 200 µM: 80.7

molecule: N#CC(C#N)=C(N)/C(C#N)=C/c1cc(O)c(O)c(O)c1
assayed.system: E. coli ClpP (Escherichia coli)
unit.spec: %
inhibition at 200 µM: 72.8

molecule: N=C(N)N/N=C/c1c(Cl)cccc1Cl
assayed.system: E. coli ClpP (Escherichia coli)
unit.spec: %
inhibition at 200 µM: 100

molecule: COC(=O)N[C@H](C(=O)N[C@@H](Cc1ccccc1)[C@@H](O)CN(Cc1ccc(-c2ccccn2)cc1)NC(=O)[C@@H](NC(=O)OC)C(C)(C)C)C(C)(C)C
assayed.system: E. coli ClpP (Escherichia coli)
unit.spec: %
inhibition at 200 µM: 85

molecule: O=C(O)c1cc(/N=N/c2ccc(S(=O)(=O)Nc3ccccn3)cc2)ccc1O
assayed.system: E. coli ClpP (Escherichia coli)
unit.spec: %
inhibition at 200 µM: 77.3

molecule: CO[C@@]1(NC(=O)CSCC#N)C(=O)N2C(C(=O)O)=C(CSc3nnnn3C)CS[C@@H]21
assayed.system: E. coli ClpP (Escherichia coli)
unit.spec: %
inhibition at 200 µM: 94.5
